ASSAY_OVERVIEW: Cellular accumulation ratio (CAR) for chloroquine sensitive HB3 strain of Plasmodium falciparum
Type: functional
MEASUREMENT_NAME: CAR
Provide a numeric answer; units are not to be included.

CCNCc1cc(Nc2ccnc3cc(Cl)ccc23)ccc1O :: 6410
CCN(CC)Cc1cccc(Nc2ccnc3cc(Cl)ccc23)c1 :: 3090

For the next question, use this compound.
Request: Please report the recorded CAR for CC(C)(C)NCc1cc(Nc2ccnc3cc(Cl)ccc23)cc(-c2ccc(Cl)cc2)c1 .
Result: 1200
